Cited source for all entries: patent US20220184092A1

Experiment: in vitro
Assay type: cell-based
Settings: African green monkey
Description: Compound cytotoxicity (CC50) is assessed in a BSL-2 counter screen as follows: Host cells in media are added in 25 μl aliquots (4000 cells/well) to each well of assay ready plates prepared with test compounds as above. […] DMSO is maintained at a constant concentration for all wells (0.3%) as dictated by the dilution factor of stock test compound concentrations. […] Luminescence is read using a BMG PHERAstar plate reader following incubation at room temperature for 10 minutes to measure cell viability.
For each record, write down the corresponding CC50 at 72 h.

Entry under review: C[C@@H]1COCCN1c1cc(-c2ccccc2C(F)(F)F)[nH]c(=O)c1 . Reported CC50 at 72 h?
> 30 µM

Entry under review: C[C@@H]1COCCN1c1cc(-c2ccccc2Cl)[nH]c(=O)c1 . Reported CC50 at 72 h?
> 30 µM

Entry under review: Cc1cscc1-c1cc(N2CCOC[C@H]2C)cc(=O)[nH]1 . Reported CC50 at 72 h?
> 10 µM
